Tested on: ABC-1
Assay: relative viability (nuclei count vs DMSO), 5 days (fraction); higher = more cells survive
Conditions: first compound 0.08 µM
Hi there, I'd appreciate the recorded relative viability for every entry that follows.
# answer = number (no unit)

Which relative viability value is on record for COc1nc(C)cnc1NS(=O)(=O)c1cccnc1-c1ccc(-c2nnco2)cc1 [Zibotentan] + C[C@@H](Oc1cc(-c2cnn(C3CCNCC3)c2)cnc1N)c1c(Cl)ccc(F)c1Cl [Crizotinib] (partner 1 µM) ?
1.45

Now the molecule COc1nc(C)cnc1NS(=O)(=O)c1cccnc1-c1ccc(-c2nnco2)cc1 [Zibotentan] + O=C(c1cc(Cc2n[nH]c(=O)c3ccccc23)ccc1F)N1CCN(C(=O)C2CC2)CC1 [Olaparib] (partner 8 µM)
1

Now the molecule O=c1cc(-c2cccc3c2Sc2ccccc2S3)oc(N2CCOCC2)c1 + C[C@@H](Oc1cc(-c2cnn(C3CCNCC3)c2)cnc1N)c1c(Cl)ccc(F)c1Cl [Crizotinib] (partner 1 µM)
1.27

Now the molecule COc1nc(C)cnc1NS(=O)(=O)c1cccnc1-c1ccc(-c2nnco2)cc1 [Zibotentan] + N=C(N)NC(=N)NCCc1ccccc1 [Phenformin] (partner 250 µM)
0.236

###

Tested on: CAL-12T
Experiment: relative viability (nuclei count vs DMSO), 5 days (fraction); higher = more cells survive
Settings: first compound 1 µM
Hi there, I'd appreciate the recorded relative viability for every entry that follows.
# answer = number (no unit)

Which relative viability value is on record for O=c1cc(N2CCOCC2)oc2c(-c3cccc4c3sc3ccccc34)cccc12 + COc1cc2c(Oc3ccc(NC(=O)C4(C(=O)Nc5ccc(F)cc5)CC4)cc3F)ccnc2cc1OCCCN1CCOCC1 [Foretinib] (partner 0.25 µM) ?
1.11

Now the compound CCN(CC)CCCCNc1ncc2cc(-c3cc(OC)cc(OC)c3)c(NC(=O)NC(C)(C)C)nc2n1 + C[C@]1(O)C[C@@H](c2nc(-c3ccc4ccc(-c5ccccc5)nc4c3)c3c(N)nccn32)C1 [Linsitinib] (partner 1 µM)
0.844

Now the compound O=c1cc(N2CCOCC2)oc2c(-c3cccc4c3sc3ccccc34)cccc12 + C[C@@H](Oc1cc(-c2cnn(C3CCNCC3)c2)cnc1N)c1c(Cl)ccc(F)c1Cl [Crizotinib] (partner 1 µM)
0.775

Now the compound CCN(CC)CCCCNc1ncc2cc(-c3cc(OC)cc(OC)c3)c(NC(=O)NC(C)(C)C)nc2n1 + N=C(N)NC(=N)NCCc1ccccc1 [Phenformin] (partner 250 µM)
0.573

Now the compound CCN(CC)CCCCNc1ncc2cc(-c3cc(OC)cc(OC)c3)c(NC(=O)NC(C)(C)C)nc2n1 + COc1cccc2cc(-c3nc([C@H]4CC[C@H](C(=O)O)CC4)n4ncnc(N)c34)[nH]c12 [OSI-027] (partner 0.5 µM)
0.576

Now the compound O=c1cc(N2CCOCC2)oc2c(-c3cccc4c3sc3ccccc34)cccc12 + CC(=O)Nc1cccc(-n2c(=O)n(C3CC3)c(=O)c3c(Nc4ccc(I)cc4F)n(C)c(=O)c(C)c32)c1 [Trametinib] (partner 0.02 µM)
0.363

Now the compound O=c1cc(N2CCOCC2)oc2c(-c3cccc4c3sc3ccccc34)cccc12 + CC(=O)c1c(C)c2cnc(Nc3ccc(N4CCNCC4)cn3)nc2n(C2CCCC2)c1=O [Palbociclib] (partner 0.5 µM)
0.436

Now the compound CCN(CC)CCCCNc1ncc2cc(-c3cc(OC)cc(OC)c3)c(NC(=O)NC(C)(C)C)nc2n1 + CCNC(=O)c1noc(-c2cc(C(C)C)c(O)cc2O)c1-c1ccc(CN2CCOCC2)cc1 [Luminespib] (partner 0.01 µM)
0.347

Now the compound CCN(CC)CCCCNc1ncc2cc(-c3cc(OC)cc(OC)c3)c(NC(=O)NC(C)(C)C)nc2n1 + CC(=O)Nc1cccc(-n2c(=O)n(C3CC3)c(=O)c3c(Nc4ccc(I)cc4F)n(C)c(=O)c(C)c32)c1 [Trametinib] (partner 0.02 µM)
0.333

###

System: ABC-1
Assay: relative viability (nuclei count vs DMSO), 5 days (fraction); higher = more cells survive
Conditions: first compound 0.01 µM
With a cut-off of 1, any relative viability strictly below it is called Condition met; any relative viability meeting it or above is called Condition not met.

Determine if O=c1cc(N2CCOCC2)oc2c(-c3cccc4c3sc3ccccc34)cccc12 + Cc1cc(Nc2cc(N3CCN(C)CC3)nc(Sc3ccc(NC(=O)C4CC4)cc3)n2)n[nH]1 [Tozasertib] (partner 0.1 µM) shows relative viability strictly lower than 1.
Condition met

Now the compound CCN(CC)CCCCNc1ncc2cc(-c3cc(OC)cc(OC)c3)c(NC(=O)NC(C)(C)C)nc2n1 + N=C(N)NC(=N)NCCc1ccccc1 [Phenformin] (partner 250 µM)
Condition met

Now the compound O=c1cc(N2CCOCC2)oc2c(-c3cccc4c3sc3ccccc34)cccc12 + CCNC(=O)c1noc(-c2cc(C(C)C)c(O)cc2O)c1-c1ccc(CN2CCOCC2)cc1 [Luminespib] (partner 0.01 µM)
Condition met

Now the compound CCN(CC)CCCCNc1ncc2cc(-c3cc(OC)cc(OC)c3)c(NC(=O)NC(C)(C)C)nc2n1 + COc1cc2c(Oc3ccc(NC(=O)C4(C(=O)Nc5ccc(F)cc5)CC4)cc3F)ccnc2cc1OCCCN1CCOCC1 [Foretinib] (partner 0.25 µM)
Condition not met

###

Hi there, I'd appreciate the recorded relative viability for every entry that follows.
System: NCI-H1650
Test: relative viability (nuclei count vs DMSO), 5 days (fraction); higher = more cells survive
Conditions: first compound 0.01 µM
# answer = number (no unit)

Which relative viability value is on record for CCN(CC)CCCCNc1ncc2cc(-c3cc(OC)cc(OC)c3)c(NC(=O)NC(C)(C)C)nc2n1 + COc1cccc2cc(-c3nc([C@H]4CC[C@H](C(=O)O)CC4)n4ncnc(N)c34)[nH]c12 [OSI-027] (partner 0.5 µM) ?
0.7

Now the compound CCN(CC)CCCCNc1ncc2cc(-c3cc(OC)cc(OC)c3)c(NC(=O)NC(C)(C)C)nc2n1 + Nc1ncn([C@H]2C[C@H](O)[C@@H](CO)O2)c(=O)n1 [Decitabine] (partner 2 µM)
0.398

Now the compound CCN(CC)CCCCNc1ncc2cc(-c3cc(OC)cc(OC)c3)c(NC(=O)NC(C)(C)C)nc2n1 + C[C@@H](Oc1cc(-c2cnn(C3CCNCC3)c2)cnc1N)c1c(Cl)ccc(F)c1Cl [Crizotinib] (partner 1 µM)
1.03

Now the compound CCN(CC)CCCCNc1ncc2cc(-c3cc(OC)cc(OC)c3)c(NC(=O)NC(C)(C)C)nc2n1 + CC(=O)Nc1cccc(-n2c(=O)n(C3CC3)c(=O)c3c(Nc4ccc(I)cc4F)n(C)c(=O)c(C)c32)c1 [Trametinib] (partner 0.02 µM)
0.695

Now the compound CCN(CC)CCCCNc1ncc2cc(-c3cc(OC)cc(OC)c3)c(NC(=O)NC(C)(C)C)nc2n1 + CS(=O)(=O)N1CCN(Cc2cc3nc(-c4cccc5[nH]ncc45)nc(N4CCOCC4)c3s2)CC1 [Pictilisib] (partner 1 µM)
0.542

###

Test system: LCLC-97TM1
Experiment: relative viability (nuclei count vs DMSO), 5 days (fraction); higher = more cells survive
Details: first compound 0.01 µM
With a cut-off of 0.3, any relative viability strictly below it is called Met; any relative viability meeting it or above is called Not met.

Determine if O=c1cc(N2CCOCC2)oc2c(-c3cccc4c3sc3ccccc34)cccc12 + Cc1nc(NC(=O)N2CCC[C@H]2C(N)=O)sc1-c1ccnc(C(C)(C)C(F)(F)F)c1 [Alpelisib] (partner 2 µM) shows relative viability strictly lower than 0.3.
Met

Now the molecule O=c1cc(N2CCOCC2)oc2c(-c3cccc4c3sc3ccccc34)cccc12 + CCNC(=O)c1noc(-c2cc(C(C)C)c(O)cc2O)c1-c1ccc(CN2CCOCC2)cc1 [Luminespib] (partner 0.01 µM)
Not met

Now the molecule O=c1cc(N2CCOCC2)oc2c(-c3cccc4c3sc3ccccc34)cccc12 + CS(=O)(=O)N1CCN(Cc2cc3nc(-c4cccc5[nH]ncc45)nc(N4CCOCC4)c3s2)CC1 [Pictilisib] (partner 1 µM)
Met

Now the molecule CCN(CC)CCCCNc1ncc2cc(-c3cc(OC)cc(OC)c3)c(NC(=O)NC(C)(C)C)nc2n1 + N=C(N)NC(=N)NCCc1ccccc1 [Phenformin] (partner 250 µM)
Not met

Now the molecule CCN(CC)CCCCNc1ncc2cc(-c3cc(OC)cc(OC)c3)c(NC(=O)NC(C)(C)C)nc2n1 + COc1cc2c(Oc3ccc(NC(=O)C4(C(=O)Nc5ccc(F)cc5)CC4)cc3F)ccnc2cc1OCCCN1CCOCC1 [Foretinib] (partner 0.25 µM)
Not met

###

Tested on: EPLC-272H
Test: relative viability (nuclei count vs DMSO), 5 days (fraction); higher = more cells survive
Conditions: first compound 2.53 µM
Hi there, I'd appreciate the recorded relative viability for every entry that follows.
# answer = number (no unit)

Report relative viability for O=c1cc(-c2cccc3c2Sc2ccccc2S3)oc(N2CCOCC2)c1 + Nc1nc2[nH]cc(CCc3ccc(C(=O)N[C@@H](CCC(=O)O)C(=O)O)cc3)c2c(=O)[nH]1 [Pemetrexed] (partner 0.2 µM) tested on EPLC-272H.
0.304

Now the compound COc1nc(C)cnc1NS(=O)(=O)c1cccnc1-c1ccc(-c2nnco2)cc1 [Zibotentan] + CC(=O)Nc1cccc(-n2c(=O)n(C3CC3)c(=O)c3c(Nc4ccc(I)cc4F)n(C)c(=O)c(C)c32)c1 [Trametinib] (partner 0.02 µM)
0.312

Now the compound COc1nc(C)cnc1NS(=O)(=O)c1cccnc1-c1ccc(-c2nnco2)cc1 [Zibotentan] + CC(C)C[C@H](NC(=O)[C@H](Cc1ccccc1)NC(=O)c1cnccn1)B(O)O [Bortezomib] (partner 0.002 µM)
0.862

Now the compound O=c1cc(-c2cccc3c2Sc2ccccc2S3)oc(N2CCOCC2)c1 + CC(=O)Nc1cccc(-n2c(=O)n(C3CC3)c(=O)c3c(Nc4ccc(I)cc4F)n(C)c(=O)c(C)c32)c1 [Trametinib] (partner 0.02 µM)
0.28
